Source of measurements: ChEMBL document CHEMBL2396601

Recorded pIC50 values for a group of molecules are listed next.
- Test system: Trypanosoma brucei rhodesiense
- ASSAY_NOTES: Antiprotozoal activity against Trypanosoma brucei rhodesiense STIB900 after 72 hrs by Alamar Blue assay
- Format: functional, organism-based
- SETTINGS: Trypanosoma brucei, STIB900, 72 h
pIC50: −log10 of the molar value.
ENDPOINT_LABEL: pIC50

- STRUCTURE_SMILES: "CC(C)NC(=N)c1ccc(-c2cccc(-c3ccc(C(=N)NC(C)C)cc3)c2)cc1.Cl.Cl"
  TGT: "Trypanosoma brucei rhodesiense"
  ENDPOINT_LABEL: "pIC50"
  VALUE_REPORTED: 7.33
- STRUCTURE_SMILES: "N=C(N)c1ccc(-c2cc(Cl)cc(-c3cccc(C(=N)N)c3)c2)cc1"
  TGT: "Trypanosoma brucei rhodesiense"
  ENDPOINT_LABEL: "pIC50"
  VALUE_REPORTED: 7.01
- STRUCTURE_SMILES: "N=C(Nc1cccc(-c2cc(Cl)cc(-c3cccc(NC(=N)c4ccccc4)c3)c2)c1)c1ccccc1"
  TGT: "Trypanosoma brucei rhodesiense"
  ENDPOINT_LABEL: "pIC50"
  VALUE_REPORTED: 6.27
- STRUCTURE_SMILES: "Cl.Cl.N=C(N)c1ccc(-c2cccc(-c3ccc(C(=N)N)nc3)c2)cn1"
  TGT: "Trypanosoma brucei rhodesiense"
  ENDPOINT_LABEL: "pIC50"
  VALUE_REPORTED: 8.22
